Structures can show the parent of a compound that is named as a salt.
Hi! I'm sharing some pKi results obtained with serotonin 2 receptor (Rattus norvegicus).
Just the number, please; pKi means minus log10 of the concentration in mol/L.

compound: CCCNC(=O)c1ccc(-c2cc3ccccc3c(N3CCN(CC)CC3)n2)cc1 [Example 63, Hydrochloride]
reported_result: 9.08

compound: CCN1CCN(c2nc(-c3ccc(OC)cc3)cc3cscc23)CC1 [Example 277, oxalate]
reported_result: 7.28

compound: CCN1CCN(c2nc(-c3ccc(N4CCC(O)CC4)cc3)cc3ccccc23)CC1 [Example 97, Trihydrochloride]
reported_result: 7.88

compound: CCN1CCN(c2nc(-c3cccc(CCCO)c3)cc3ccccc23)CC1 [Example 418]
reported_result: 7.76

compound: CCN1CCN(c2nc(-c3ccc(S(=O)(=O)NC)cc3)cc3ccccc23)CC1 [Example 361, dihydrochloride]
reported_result: 8.59

compound: CCN1CCN(c2nc(/C=C/c3ccccc3F)cc3ccccc23)CC1 [Example 197, Oxalate]
reported_result: 8.37

compound: CCN1CCN(c2nc(Cc3ccccc3)cc3ccccc23)CC1 [Example 419]
reported_result: 7.79

compound: CCN1CCN(c2nc(-c3cccc(OCCO)c3)cc3ccccc23)CC1 [Example 329, dihydrochloride]
reported_result: 7.13

compound: CCN1CCN(c2nc(-c3ccc(NC(C)=O)cc3)cc3ccccc23)CC1 [Example 68, Hydrochloride]
reported_result: 7.03

compound: CCN1CCN(c2nc(-c3ccc(N)cc3)cc3ccccc23)CC1 [Example 65, Hydrochloride]
reported_result: 7.47

GET /values?readout=pKi&item= CCN1CCN(c2nc(-c3ccc(CCC(C)O)cc3)cc3ccccc23)CC1 (stereo not shown) [Example 22, oxalate] 8.82

GET /values?readout=pKi&item= CCN1CCN(c2nc(-c3ccc(OCC(O)COC)cc3)cc3ccccc23)CC1 (stereo not shown) [Example 343, dihydrochloride] 8.24

----------
Hi! I'm sharing some Ki results obtained with serotonin 2 receptor (Rattus norvegicus, UniProt P14842).
Sequence (P14842 whole entry): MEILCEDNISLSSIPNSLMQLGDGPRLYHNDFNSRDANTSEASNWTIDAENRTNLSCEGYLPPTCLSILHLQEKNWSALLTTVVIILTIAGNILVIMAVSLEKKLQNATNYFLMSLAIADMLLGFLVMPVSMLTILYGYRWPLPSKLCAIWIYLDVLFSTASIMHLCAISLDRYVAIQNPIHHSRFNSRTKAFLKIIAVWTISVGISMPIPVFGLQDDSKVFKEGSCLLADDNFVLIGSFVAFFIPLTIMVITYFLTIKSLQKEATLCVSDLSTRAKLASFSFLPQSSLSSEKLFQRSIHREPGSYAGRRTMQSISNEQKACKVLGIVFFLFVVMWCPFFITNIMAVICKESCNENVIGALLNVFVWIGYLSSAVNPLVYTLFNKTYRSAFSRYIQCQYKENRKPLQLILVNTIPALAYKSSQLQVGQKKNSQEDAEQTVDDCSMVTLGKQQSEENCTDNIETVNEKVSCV
Counter-ions that a name gives are not always drawn.
Answer format: numeric, nM implied, no suffix.

Study these solved cases before continuing.
compound: CCC#Cc1ccc(-c2cc3ccccc3c(N3CCN(CC)CC3)n2)cn1
target_or_system: serotonin 2 receptor (Rattus norvegicus, UniProt P14842)
Ki, nM: 2.9
//
compound: CCN1CCN(c2nc(-c3ccc(OC)c(CCCCO)c3)cc3ccccc23)CC1 [Example 35, hydrochloride]
target_or_system: serotonin 2 receptor (Rattus norvegicus, UniProt P14842)
Ki, nM: 5.7

We next turn to a different compound, shown below.
GET /values?readout=Ki&item= CCN1CCN(c2nc(-c3ccc(OCCO)cc3)cc3ccoc23)CC1 [Example 301, oxalate] 12.7

----------
molecular target: serotonin 1A receptor (Rattus norvegicus); construct: To the receptor fraction of the hippocampus were added a test compound and 0.5 nM of [^3H]; 8-hydroxy-dipropylaminotetralin; from tissue; host or cells: rat hippocampus membrane fraction; assay: Binding test on [3H] 8-hydroxy-dipropylaminotetralin, hippocampus receptor fraction; parameters: species or system SD rats; details: rat hippocampus receptor fraction, 0.5 nM [3H] 8-OH-DPAT, room temperature 30 min; read-out: 5HT1
Sequence (P19327 whole entry): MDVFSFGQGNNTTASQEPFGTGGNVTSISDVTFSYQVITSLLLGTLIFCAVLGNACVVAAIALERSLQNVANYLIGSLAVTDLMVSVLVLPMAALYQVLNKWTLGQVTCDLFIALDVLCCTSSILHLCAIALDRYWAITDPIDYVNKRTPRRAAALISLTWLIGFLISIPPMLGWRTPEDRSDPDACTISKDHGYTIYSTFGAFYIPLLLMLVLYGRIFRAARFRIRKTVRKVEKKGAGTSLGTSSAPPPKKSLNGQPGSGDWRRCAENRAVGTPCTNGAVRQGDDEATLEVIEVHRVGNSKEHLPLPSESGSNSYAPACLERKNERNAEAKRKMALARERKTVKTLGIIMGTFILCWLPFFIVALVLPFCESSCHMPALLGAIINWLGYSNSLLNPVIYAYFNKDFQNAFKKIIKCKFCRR
Counter-ions that a name gives are not always drawn.
quantity_name: pKi
Just the number, please; pKi means minus log10 of the concentration in mol/L.

Study these solved cases before continuing.
molecule: CCN1CCN(c2nc(-c3ccc(S(=O)(=O)CCCOC)cc3)cc3ccccc23)CC1
quantity_name: pKi
reported_result: 8.59
--
molecule: CCN1CCN(c2nc(-c3ccc([C@@H]4C[C@@H](O)CCO4)cc3)cc3ccsc23)CC1 (relative stereo) [Example 455, dihydrochloride]
quantity_name: pKi
reported_result: 7.30

We next turn to a different molecule, shown below.
GET /values?readout=pKi&item= CCN1CCN(c2nc(-c3ccc(CCO)c(F)c3)cc3ccccc23)CC1 [Example 385, Dihydrochloride] 7.83
